Tested on: NCI-H226 lung
TEST_METHOD_NOTES: NCI tumour cell line growth inhibition, 48 h
Where a SMILES comes first, the peptide text is derived from it. [ ]: non-standard residue; d: D form. The star is where a group is joined. NMeF = CN[C@@H](Cc1ccccc1)C(=O)O; NMeV = CN[C@H](C(=O)O)C(C)C; Boc = CC(C)(C)OC(=O)*; OBn = c1ccc(CO*)cc1
Lab note: compare TGI against 20 µM. Equal or greater, write satisfied. Smaller, write not satisfied.

Prompt: Quick check: does O=C1C(c2c(O)[nH]c3ccccc23)=Nc2ccc(Br)cc21 have TGI greater than or equal to 20 µM?
Completion: satisfied

Prompt: Is TGI for CCN(CC)CCCCNc1ncc2cc(-c3cc(OC)cc(OC)c3)c(NC(=O)NC(C)(C)C)nc2n1 at or above 20 µM?
Completion: satisfied

New cases:
Prompt: In plain terms: is recorded TGI at least 20 µM for Cc1ccc(NC2=C(Cl)C(=O)N(Cc3ccccc3)C2=O)cc1Cl ?
Completion: not satisfied

Prompt: Is it the case that Nc1cccc2c1C1=NNC(=O)CC1C2 (stereo not given) has TGI reaching or exceeding 20 µM?
Completion: satisfied

Prompt: Could you verify whether the entry O=C(O)c1cccc2cccc(C(=O)O)c12.[Hg] shows TGI of no less than 20 µM?
Completion: satisfied

Prompt: Please tell me: is the compound CC(C)[C@@H](C(=O)N1CCC[C@H]1C(=O)OCc1ccccc1)N(C)C(=O)[C@H](C(C)C)N(C)C(=O)[C@H](Cc1ccccc1)N(C)C(=O)[C@H](NC(=O)OC(C)(C)C)C(C)C (Boc-[dV][NMeF][NMeV][NMeV]P-OBn) at or over 20 µM in terms of TGI?
Completion: satisfied

Prompt: In plain terms: is recorded TGI at least 20 µM for C/C(=N\Nc1nc2ccccc2s1)c1cnccn1 ?
Completion: not satisfied

Prompt: Quick check, TGI >= 20 µM? CC(C)NC(=O)OCc1c(COC(=O)NC(C)C)c(-c2ccc(Cl)c(Cl)c2)n2c1CCC2
Completion: satisfied

Prompt: Decide: TGI of Nc1ncnc2c1ncn2C1C=CC(COS(N)(=O)=O)C1 (stereo not given) >= 20 µM?
Completion: satisfied

Prompt: Check the entry C[C@@H](CO)C1=CC(C#C[Si](C)(C)C)N(C(=O)Oc2ccccc2)c2ccccc21 (stereo not given in full) : does TGI equal or exceed 20 µM?
Completion: satisfied
